Listed here are molecules together with their documented AUC(0-t).
# Test details: In vivo pharmacokinetic properties in rats (IV and PO)
# Set-up: species or system male Sprague Dawley rats
# Condition notes: male, Sprague Dawley, rat, plasma, 10 mg/kg, heading: Oral Administration AUC0-last, PO, 10 mg/kg
Numbers only; they are read as ng·h/mL.

Worked set:
> print(dat)
                                   molecule  reported.property  quantitative.result
1  CC(C)(C)c1cc(-c2cncc(-c3ccc(NS(C)(=O)=O)cc3Cl)c2)ccn1 [Compound Z-803]           AUC(0-t)                 2580
2  O=C(c1ccc(-c2cncc(-c3ccnc4c3OCCO4)c2)c(Cl)c1)N1CCC(O)CC1 [Compound Z-806]           AUC(0-t)                  272
3  CC(C)(O)c1cc(-c2cncc(-c3ccc(C(=O)N4CCC(O)CC4)cc3Cl)c2)ccn1 [Compound Z-796]           AUC(0-t)                 7140

Requested field: AUC(0-t). Item: CC(C)(C)c1cc(-c2cncc(-c3ccc(C(=O)N4CCC(O)CC4)cc3)c2F)ccn1 [Compound Z-866]
151

* * *

Listed here are molecules together with their documented half-life at 1 µM.
# Test details: Half-life in mouse liver microsomes
# Format: in vitro ADME
# Condition notes: mouse, liver microsomes, read-out: H: half-life of mouse liver microsomes
Numbers only; they are read as min.

Worked set:
> print(dat)
                               smiles.input  quantitative.result
1  CC(C)(C)c1cc(-c2cncc(-c3ccc(NC(=O)OCCN4CCCC4)cc3Cl)c2)ccn1                 14.4
2  O=C(Nc1ccc(-c2cncc(-c3ccnc4c3OCCO4)c2)c(Cl)c1)OC1CC1                 16.4
3  CC(C)(C)c1cc(-c2cncc(-c3ccc(C(=O)N4CCC[C@H]4C(C)(C)O)cc3Cl)c2)ccn1                 27.4

Okay, now this molecule:
Requested field: half-life at 1 µM. Item: CC(C)(C)c1cc(-c2cc(-c3ccc(C(=O)N4CCC(O)CC4)cc3Cl)c3cccnc3c2)ccn1
19.3

* * *

# Test details: In vivo pharmacokinetic properties in rats (IV and PO)
# Parameters: species or system male Sprague Dawley rats
# Condition notes: male, Sprague Dawley, rat, plasma, IV, 2 mg/kg, read-out: Intravenous Delivery (IV) AUC0-last
# Description: The in vivo pharmacokinetic properties of compounds by both intravenous and oral administration were evaluated in male Sprague Dawley rats or C57BL/6J mice. Animals were housed in cages with clean bedding. Certified rodent diet was provided. Water was available ad libitum. Environmental controls for the animal room were set to maintain a temperature of 22° C. to 25° C., humidity of 40-70% RH, and a 12-hour light/12-hour dark cycle. […]
Reported property: AUC(0-t) (ng·h/mL)
Numbers only; they are read as ng·h/mL.

> print(dat)
                               smiles.input  reported.property  quantitative.result
1  O=C(c1ccc(-c2cncc(-c3ccnc4c3OCCO4)c2)c(Cl)c1)N1CCC(O)CC1           AUC(0-t)                 2630
2  CC(C)(C)c1cc(-c2cncc(-c3ccc(C(=O)N4CCC(O)CC4)cc3)c2F)ccn1           AUC(0-t)                 1070
3  CC(C)(C)c1cc(-c2cncc(-c3ccc(NS(C)(=O)=O)cc3Cl)c2)ccn1           AUC(0-t)                 6160

Okay, now this molecule:
Requested field: AUC(0-t). Item: CC(C)(O)c1cc(-c2cncc(-c3ccc(C(=O)N4CCC(O)CC4)cc3Cl)c2)ccn1
3800
